Ref: patent US6825172B2

System: S. pneumoniae ATCC49619
Test: MIC, microdilution broth method (NCCLS)
Format: cell-based
Conditions: Streptococcus pneumoniae, Table 1, 6-Carbamoyl-3-Acyl Macrolide Derivatives, read-out: MIC Values, D: S. pneumoniae ATCC49619
The following molecules are listed with their measured MIC values.
Could you give me the number in µg/mL? Just the number is fine.

CC[C@H]1OC(=O)[C@H](C)[C@@H](OC(=O)Cc2cccnc2)[C@H](C)[C@@H](O[C@@H]2O[C@H](C)C[C@H](N(C)C)[C@H]2O)[C@](C)(OC(=O)NC/C=C/c2cnc(C(C)(C)C)nc2)C[C@@H](C)C(=O)[C@H](C)[C@H]2NC(=O)O[C@@]21C    0.06
CC[C@H]1OC(=O)[C@H](C)[C@@H](OC(=O)C(C)C)[C@H](C)[C@@H](O[C@@H]2O[C@H](C)C[C@H](N(C)C)[C@H]2O)[C@](C)(OC(=O)NC/C=C/c2ccnc3ccccc23)C[C@@H](C)C(=O)[C@H](C)[C@H]2NC(=O)O[C@@]21C    0.03
CC[C@H]1OC(=O)[C@H](C)[C@@H](OC(=O)COCc2ccccc2)[C@H](C)[C@@H](O[C@@H]2O[C@H](C)C[C@H](N(C)C)[C@H]2O)[C@](C)(OC(=O)NC/C=C/c2ccc(-c3ncccn3)cc2)C[C@@H](C)C(=O)[C@H](C)[C@H]2NC(=O)O[C@@]21C    0.06

Value of measured MIC for the entry CC[C@H]1OC(=O)[C@H](C)[C@@H](OC(=O)Cc2ccccn2)[C@H](C)[C@@H](O[C@@H]2O[C@H](C)C[C@H](N(C)C)[C@H]2O)[C@](C)(OC(=O)NC/C=C/C=C/c2cccnc2)C[C@@H](C)C(=O)[C@H](C)[C@H]2NC(=O)O[C@@]21C : 0.03

====

Test system: E. faecalis ATCC29212
Assay: MIC, microdilution broth method (NCCLS)
Assay type: cell-based
Conditions: Enterococcus faecalis, Table 1, 6-Carbamoyl-3-Acyl Macrolide Derivatives, read-out: MIC Values, C: E. faecalis ATCC29212
assayMetric: MIC

As a guide, the following entries are already answered.
CC[C@H]1OC(=O)[C@H](C)[C@@H](OC(=O)Cc2ccccn2)[C@H](C)[C@@H](O[C@@H]2O[C@H](C)C[C@H](N(C)C)[C@H]2O)[C@](C)(OC(=O)NC/C=C/c2ccc(C#N)nc2)C[C@@H](C)C(=O)[C@H](C)[C@H]2NC(=O)O[C@@]21C    0.25 µg/mL
CC[C@H](C)C(=O)O[C@H]1[C@H](C)[C@@H](O[C@@H]2O[C@H](C)C[C@H](N(C)C)[C@H]2O)[C@](C)(OC(=O)NC/C=C/c2ccc(-c3ncccn3)cc2)C[C@@H](C)C(=O)[C@H](C)[C@H]2NC(=O)O[C@]2(C)[C@@H](CC)OC(=O)[C@@H]1C    0.5 µg/mL
CC[C@H]1OC(=O)[C@H](C)[C@@H](OC(=O)Cc2cccnc2)[C@H](C)[C@@H](O[C@@H]2O[C@H](C)C[C@H](N(C)C)[C@H]2O)[C@](C)(OC(=O)NC/C=C/c2ccnc3ccccc23)C[C@@H](C)C(=O)[C@H](C)[C@H]2NC(=O)O[C@@]21C    0.25 µg/mL

Here's the next entry for you.
Value of measured MIC for the entry CC[C@H]1OC(=O)[C@H](C)[C@@H](OC(=O)Cc2cccnc2)[C@H](C)[C@@H](O[C@@H]2O[C@H](C)C[C@H](N(C)C)[C@H]2O)[C@](C)(OC(=O)NC/C=C/c2cnc(C(C)C)nc2)C[C@@H](C)C(=O)[C@H](C)[C@H]2NC(=O)O[C@@]21C : 0.5 µg/mL
